# credit: ChEMBL document CHEMBL1759956

Test: Cytotoxicity against human CEM cells expressing green fluorescent protein assessed as cell viability at 100 ug after 48 hrs by MTT assay
Assay type: cell-based, CCRF-CEM
Details: read-out: Activity
# if measured viability at 48 h, 100 ug < 90%: label 1  # else: label 0

>  <chemicalSmiles>
O=C1Nc2ccc(OC(F)(F)F)cc2[C@]12C[C@H]2CO

>  <class>
label 1

$$$$
>  <chemicalSmiles>
O=C1Nc2ccc([N+](=O)[O-])cc2[C@]12C[C@H]2CCl

>  <class>
label 1

$$$$
>  <chemicalSmiles>
O=C1Nc2ccc([N+](=O)[O-])cc2[C@]12C[C@H]2CO

>  <class>
label 0

$$$$
>  <chemicalSmiles>
O=C1Nc2ccc(OC(F)(F)F)cc2[C@]12C[C@H]2CCl

>  <class>
label 1

$$$$
>  <chemicalSmiles>
Cc1ccc2c(c1)[C@]1(C[C@H]1CCl)C(=O)N2

>  <class>
label 1

$$$$
>  <chemicalSmiles>
Cc1ccc2c(c1)[C@]1(C[C@H]1CO)C(=O)N2

>  <class>
label 0

$$$$
